test system: Wild type; test: S. aureus survival, RN4220 and DeltatarO strains – OD600, teichoic acid synthesis inhibitors, primary screen (AID 463173); settings: S. aureus RN4220 wild type/DeltatarO growth, OD600, 18 h, hits give low values, screened at 18.75 µg/mL (by protocol)
About 1,700 (3.3%) of roughly 52,000 compounds were called active. Shown is part of a subset that was picked to be rich in actives.
property.name: survival (%)
Value expressed in %; do not type the unit.

| molecule | target.under.test | survival / % |
| --- | --- | --- |
| N#C/C(=C\c1cn(CC(=O)N2CCCC2)c2ccccc12)C(=O)NC1CC1 | Wild type | 103 |
| Cc1ccc(NCc2nc3ccccc3n2CCOc2ccccc2)cc1 | Wild type | -20 |
| C1CCC2(C1)OCC1(CO2)COC2(CCCC2)OC1 | Wild type | 111 |
| Cc1cccc2nc(Cn3c(=O)n(-c4ccc(Cl)cc4)c(=O)c4c5c(sc43)CCC5)cc(=O)n12 | Wild type | 121 |
| COc1ccc(NCc2nc3ccccc3n2CCOc2ccc(C)cc2)cc1 | Wild type | -18 |

survival for Cc1ccc(NC(=O)c2cccc(NC(=O)N3CCSc4ncccc43)c2)cc1F ?
92

survival for O=C(c1ccccc1)N(Cc1ccco1)Cc1cccs1 ?
82

survival for CCC1CN(C(=O)N2CCC(C(=O)NCc3cccc(OC)c3OC)CC2)c2cc(C)ccc2O1 (stereo unspecified) ?
106

survival for Fc1ccc(CSc2nncn3c2cc2occc23)c(Cl)c1 ?
88

survival for COc1ccccc1NC(=O)c1c(C)cc(C)nc1SCC(=O)Nc1ccc(C)c(C)c1 ?
81

====

test system: Wild type; experiment: S. aureus survival, RN4220 and DeltatarO strains – OD600, teichoic acid synthesis inhibitors, primary screen (AID 463173); details: S. aureus RN4220 wild type/DeltatarO growth, OD600, 18 h, hits give low values, screened at 18.75 µg/mL (by protocol)
Screen size: about 52,000 compounds; about 1,700 (3.3%) were called active. For the sample, actives were picked, then their nearest neighbours and some compounds at random.
Below: a set of entries, each annotated with reported survival.

| smiles.notation | survival |
| --- | --- |
| COc1ccc(OC)c2sc(N3CCN(C(=O)c4ccco4)CC3)nc12 | 76% (inactive) |
| CCc1ccc(C(=O)c2cn(CC(=O)Nc3cc(OC)ccc3OC)c3nc(C)ccc3c2=O)cc1 | 124% (inactive) |
| COc1ccc2[nH]c(=O)c(CN(C(=O)c3cccc(Cl)c3)c3ccccc3OC)cc2c1 | 81% (inactive) |

survival for CCN1CCC(N(Cc2ccc(F)cc2)C(=O)Nc2ccc(C)c(F)c2)CC1 ?
87% (inactive)

survival for COc1ccc(OC)c2sc(N3CCN(C(=O)C(C)(C)C)CC3)nc12 ?
69% (inactive)

survival for CC(=O)N1CCC2(CC1)OC(=O)C(C)=C2C(=O)NCc1ccccc1Cl ?
70% (inactive)

survival for CCCC(=O)N1CCN(c2nc3c(OC)ccc(C)c3s2)CC1 ?
14% (active)

survival for Cc1ccc(C)c2sc(N3CCN(C(=O)c4ccco4)CC3)nc12 ?
159% (inactive)

survival for CCc1ccc(NC(=O)c2cc3nc(-c4ccc(C)cc4)cc(C(F)(F)F)n3n2)cc1 ?
60% (inactive)

survival for COc1ccc(OC)c2sc(N3CCN(C(=O)C4CC4)CC3)nc12 ?
-6% (active)

====

system: Wild type; assay: S. aureus survival, RN4220 and DeltatarO strains – OD600, teichoic acid synthesis inhibitors, primary screen (AID 463173); conditions: S. aureus RN4220 wild type/DeltatarO growth, OD600, 18 h, hits give low values, screened at 18.75 µg/mL (by protocol)
Among all 52,000 compounds or so, about 1,700 (3.3%) were called active. The entries come from a sample that favours actives as a whole.
For each record, check the reported survival: if it is below 80% write true (1), else write false (0).

Field: below-cutoff. Rule: recorded survival strictly less than 80%. Subject: Cc1oc2ncn(CC(C)C)c(=O)c2c1C(=O)N(CCN(C)C)Cc1ccccc1
false (0)

Field: below-cutoff. Rule: recorded survival strictly less than 80%. Subject: Cc1ccc2c(c1)NC(=O)C(CC(=O)Nc1cc(Cl)ccc1C)O2 (stereo not given)
true (1)

Field: below-cutoff. Rule: recorded survival strictly less than 80%. Subject: CCOc1ccc(NC(=O)CSc2nnc3c(C)cc4ccccc4n23)cc1
false (0)

Field: below-cutoff. Rule: recorded survival strictly less than 80%. Subject: CC(=O)N1c2ccc(S(=O)(=O)NCC3CCC(C(=O)Nc4cccc(C)c4)CC3)cc2CC1C (stereo not given)
false (0)

Field: below-cutoff. Rule: recorded survival strictly less than 80%. Subject: CC(C)CC(=O)Nc1ccc(C(=O)OCc2cc(=O)n3nc(C4CCCCC4)sc3n2)cc1
true (1)

Field: below-cutoff. Rule: recorded survival strictly less than 80%. Subject: CC(C)(C)C(=O)Nc1ccc(-c2nc3ccc(NC(=O)C(C)(C)C)cc3[nH]2)cc1
false (0)

Field: below-cutoff. Rule: recorded survival strictly less than 80%. Subject: O=C(Nc1ccc2nc(-c3ccccc3)[nH]c2c1)c1ccco1
true (1)

Field: below-cutoff. Rule: recorded survival strictly less than 80%. Subject: COC(=O)c1ccccc1NC(=O)COC(=O)c1ccco1
false (0)

Field: below-cutoff. Rule: recorded survival strictly less than 80%. Subject: Cc1ccc(CNC(=O)CCc2c(C)c3ccc(O)c(C)c3oc2=O)cc1
false (0)

====

system: Wild type; assay: S. aureus survival, RN4220 and DeltatarO strains – OD600, teichoic acid synthesis inhibitors, primary screen (AID 463173); details: S. aureus RN4220 wild type/DeltatarO growth, OD600, 18 h, screened at 18.75 µg/mL (by protocol)
Out of some 52,000 compounds screened, about 1,700 (3.3%) were called active. Cut-off read from the data, not from the text of the source: active = survival mostly below about 52% (no sharp cut-off); inactive = mostly above about 56%. Shown is part of a subset that was picked to be rich in actives.
Classes to choose from: active, inactive

| compound | target.under.test | assigned.category |
| --- | --- | --- |
| COc1ccc(NCc2nnc3n2CCCCC3)c(OC)c1 | Wild type | inactive |

What did this assay record as the result for COc1ccccc1Cn1cc(C(=O)c2ccc(C)cc2)c(=O)c2cc3c(cc21)OCCO3 ?
inactive

What did this assay record as the result for COC(=O)C(C)n1cnc2sc3c(c2c1=O)CCCC3 (centres undefined) ?
inactive

What did this assay record as the result for COc1ccccc1CNC(=O)c1cc2c(-c3ccc(Cl)cc3)nn(C)c2s1 ?
inactive

What did this assay record as the result for COc1ccc(Cl)cc1NCc1nnc2n1CCCCC2 ?
active

What did this assay record as the result for COCCCn1c(SCC(=O)NCc2ccccc2)nc2c(sc3ccccc32)c1=O ?
inactive

====

tested on: Wild type; assay: S. aureus survival, RN4220 and DeltatarO strains – OD600, teichoic acid synthesis inhibitors, primary screen (AID 463173); conditions: S. aureus RN4220 wild type/DeltatarO growth, OD600, 18 h, hits give low values, screened at 18.75 µg/mL (by protocol)
In all, about 52,000 compounds went through this assay and about 1,700 (3.3%) were called active. This excerpt belongs to a sample that is enriched for actives.
For each record, check the reported survival: if it is below 60% write True, else write False.

Record excerpt, results attached:
| molecule | assigned.category |
| --- | --- |
| COc1ccc2c(c1)c1c(c(=O)n(CCc3ccccc3)c(=O)n1Cc1ccccc1)n2C | True |
| COc1ccc2c(c1)c1c(c(=O)n(CCc3ccccc3)c(=O)n1Cc1ccc(F)cc1)n2C | True |
| O=C1C2C3C=CC(C3)C2C(=O)N1c1ccc2c(c1)OCO2 (stereo not given) | False |
| CCOC(=O)/C(C#N)=C(\O)c1ccccc1 | False |
| CCOc1cc(C)c(C(C)C)cc1S(=O)(=O)n1ccnc1CC | True |

Field: below-cutoff. Rule: recorded survival strictly less than 60%. Subject: CCc1nccn1S(=O)(=O)c1cc(Br)ccc1Br
False

Field: below-cutoff. Rule: recorded survival strictly less than 60%. Subject: COc1ccc2cc(CNc3ccc(C)cc3)c(=O)n(CC(=O)Nc3ccc(C)cc3Cl)c2c1
False

Field: below-cutoff. Rule: recorded survival strictly less than 60%. Subject: CCc1ccc(NCc2cc3ccc(OC)cc3n(CC(=O)Nc3ccccc3C)c2=O)cc1
False

Field: below-cutoff. Rule: recorded survival strictly less than 60%. Subject: Cc1ccc2cc(CN(CC3CCCO3)C(=O)C(F)(F)F)c3nnnn3c2c1C (stereo not given)
False

====

tested on: Wild type; experiment: S. aureus survival, RN4220 and DeltatarO strains – OD600, teichoic acid synthesis inhibitors, primary screen (AID 463173); settings: S. aureus RN4220 wild type/DeltatarO growth, OD600, 18 h, hits give low values, screened at 18.75 µg/mL (by protocol)
The campaign covered roughly 52,000 compounds. About 1,700 (3.3%) were called active. Many of the other results were omitted from the sample, so actives are more common in it than they were.
For each record, check the reported survival: if it is below 80% write label 1, else write label 0.

Field: below-cutoff. Rule: recorded survival strictly less than 80%. Subject: CC(C)c1ccc(NC(=O)CN2C(=O)C3(SCC(=O)N3c3ccc(F)cc3)c3ccccc32)cc1 (centres undefined)
label 1

Field: below-cutoff. Rule: recorded survival strictly less than 80%. Subject: Cc1c(Cl)cccc1NC(=O)Cn1nnc(-c2nc(-c3ccccc3)no2)c1N
label 1

Field: below-cutoff. Rule: recorded survival strictly less than 80%. Subject: COc1ccc(OCCCn2c(C3CC(=O)N(c4ccc(F)cc4)C3)nc3ccccc32)cc1 (centres undefined)
label 0

Field: below-cutoff. Rule: recorded survival strictly less than 80%. Subject: O=C1CC(c2nc3ccccc3n2CCCOc2ccccc2)CN1c1ccc(F)cc1 (centres undefined)
label 0
